tested on: Hordeum vulgare; assay: Herbicidal activity, postemergence test; type: in vivo; details: post; sprayed onto seedling plants, 800 g of active material per hectare; evaluated 2 weeks after treatment
Property: HORVW control rating (0-9); scope: individual compounds
Experimental Endpoint: HORVW control rating (0-9)

[[record]]
smiles_code = "C[C@H](NC(=O)c1nnc(-c2ccccc2Cl)o1)c1ccccc1"
test_target = "Hordeum vulgare"
experimental_endpoint = "HORVW control rating (0-9)"
experimental_result = "1 (trace effect)"

[[record]]
smiles_code = "C[C@H](NC(=O)c1nnc(C(C)(C)C)o1)c1ccccc1"
test_target = "Hordeum vulgare"
experimental_endpoint = "HORVW control rating (0-9)"
experimental_result = "1 (trace effect)"

[[record]]
smiles_code = "O=C(NCc1ccccc1)c1nnc(-c2ccc(F)cc2)o1"
test_target = "Hordeum vulgare"
experimental_endpoint = "HORVW control rating (0-9)"
experimental_result = "0 (no effect)"


----------
system: Galium aparine; assay: Herbicidal activity, postemergence test; type: in vivo; details: post; sprayed onto seedling plants, 800 g of active material per hectare; evaluated 2 weeks after treatment
Property: GALAP control rating (0-9); scope: individual compounds
Experimental Endpoint: GALAP control rating (0-9)

[[record]]
smiles_code = "C[C@H](NC(=O)c1nnc(-c2ccccc2Cl)o1)c1ccccc1"
experimental_result = "4 (injury)"

[[record]]
smiles_code = "C[C@H](NC(=O)c1nnc(-c2ccccc2)o1)c1ccccc1"
experimental_result = "8 (approaching complete kill)"

[[record]]
smiles_code = "C[C@H](NC(=O)c1nnc(-c2c(F)cccc2F)o1)c1ccccc1"
experimental_result = "5 (definite injury)"


----------
tested on: Setaria viridis; assay: Herbicidal activity, postemergence test; type: in vivo; conditions: post; sprayed onto seedling plants, 800 g of active material per hectare; evaluated 2 weeks after treatment
Property: SETVI control rating (0-9); scope: individual compounds
Experimental Endpoint: SETVI control rating (0-9)

[[record]]
compound = "C[C@H](NC(=O)c1nnc(-c2c(Cl)cccc2Cl)o1)c1ccccc1 [Example 25]"
test_target = "Setaria viridis"
experimental_result = "0 (no effect)"

[[record]]
compound = "C[C@H](NC(=O)c1nnc(N(C)C)o1)c1ccccc1 [Example 6]"
test_target = "Setaria viridis"
experimental_result = "0 (no effect)"

[[record]]
compound = "C[C@H](NC(=O)c1nnc(-c2cc(Cl)cc(Cl)c2)o1)c1ccccc1 [Example 28]"
test_target = "Setaria viridis"
experimental_result = "0 (no effect)"


----------
system: Lamium purpureum; test: Herbicidal activity, preemergence test; type: in vivo; details: pre; sprayed onto soil, 800 g of active material per hectare; evaluated 3 weeks after treatment
Property: LAMPU control rating (0-9); scope: individual molecules
Experimental Endpoint: LAMPU control rating (0-9)

[[record]]
smiles_code = "COc1ccc(-c2nnc(C(=O)N[C@@H](C)c3ccccc3)o2)cc1"
experimental_result = "8 (approaching complete kill)"

[[record]]
smiles_code = "C[C@H](NC(=O)c1nnc(-c2ccc(F)cc2)o1)c1ccccc1"
experimental_result = "9 (complete kill)"

[[record]]
smiles_code = "C[C@H](NC(=O)c1nnc(-c2ccc(F)cc2F)o1)c1ccccc1"
experimental_result = "8 (approaching complete kill)"

[[record]]
smiles_code = "C[C@H](NC(=O)c1nnc(-c2c(Cl)cccc2Cl)o1)c1ccccc1"
experimental_result = "0 (no effect)"


----------
system: Ambrosia artemisifolia; test: Herbicidal activity, preemergence test; format: in vivo; details: pre; sprayed onto soil, 800 g of active material per hectare; evaluated 3 weeks after treatment
Experimental Endpoint: AMBEL control rating (0-9)

[[record]]
compound = "C[C@H](NC(=O)c1nnc(-c2ccccc2Cl)o1)c1ccccc1"
experimental_endpoint = "AMBEL control rating (0-9)"
experimental_result = "0 (no effect)"

[[record]]
compound = "C[C@H](NC(=O)c1nnc(-c2ccc(F)cc2)o1)c1ccccc1"
experimental_endpoint = "AMBEL control rating (0-9)"
experimental_result = "0 (no effect)"

[[record]]
compound = "C[C@H](NC(=O)c1nnc(-c2ccc(Cl)cc2)o1)c1ccccc1"
experimental_endpoint = "AMBEL control rating (0-9)"
experimental_result = "0 (no effect)"

[[record]]
compound = "COc1ccc(-c2nnc(C(=O)N[C@@H](C)c3ccccc3)o2)cc1"
experimental_endpoint = "AMBEL control rating (0-9)"
experimental_result = "0 (no effect)"

[[record]]
compound = "C[C@H](NC(=O)c1nnc(-c2ccc(Cl)c(Cl)c2)o1)c1ccccc1"
experimental_endpoint = "AMBEL control rating (0-9)"
experimental_result = "0 (no effect)"

[[record]]
compound = "C[C@H](NC(=O)c1nnc(-c2ccccc2)o1)c1ccccc1"
experimental_endpoint = "AMBEL control rating (0-9)"
experimental_result = "0 (no effect)"

[[record]]
compound = "C[C@H](NC(=O)c1nnc(-c2c(Cl)cccc2Cl)o1)c1ccccc1"
experimental_endpoint = "AMBEL control rating (0-9)"
experimental_result = "0 (no effect)"

[[record]]
compound = "C[C@H](NC(=O)c1nnc(-c2ccc(F)cc2F)o1)c1ccccc1"
experimental_endpoint = "AMBEL control rating (0-9)"
experimental_result = "1 (trace effect)"

[[record]]
compound = "CC(NC(=O)c1nnc(-c2ccccc2)o1)c1cccs1 (racemic)"
experimental_endpoint = "AMBEL control rating (0-9)"
experimental_result = "0 (no effect)"

[[record]]
compound = "C[C@H](NC(=O)c1nnc(C(C)(C)C)o1)c1ccccc1"
experimental_endpoint = "AMBEL control rating (0-9)"
experimental_result = "3 (moderate effect)"

